Reported values of inhibition at 1 µM for individual entries
- experimental-target: M3 muscarinic receptors (Homo sapiens)
- Construct: expressed in transfected cells; host or cells: CHO cells
- Sequence (P20309 whole entry): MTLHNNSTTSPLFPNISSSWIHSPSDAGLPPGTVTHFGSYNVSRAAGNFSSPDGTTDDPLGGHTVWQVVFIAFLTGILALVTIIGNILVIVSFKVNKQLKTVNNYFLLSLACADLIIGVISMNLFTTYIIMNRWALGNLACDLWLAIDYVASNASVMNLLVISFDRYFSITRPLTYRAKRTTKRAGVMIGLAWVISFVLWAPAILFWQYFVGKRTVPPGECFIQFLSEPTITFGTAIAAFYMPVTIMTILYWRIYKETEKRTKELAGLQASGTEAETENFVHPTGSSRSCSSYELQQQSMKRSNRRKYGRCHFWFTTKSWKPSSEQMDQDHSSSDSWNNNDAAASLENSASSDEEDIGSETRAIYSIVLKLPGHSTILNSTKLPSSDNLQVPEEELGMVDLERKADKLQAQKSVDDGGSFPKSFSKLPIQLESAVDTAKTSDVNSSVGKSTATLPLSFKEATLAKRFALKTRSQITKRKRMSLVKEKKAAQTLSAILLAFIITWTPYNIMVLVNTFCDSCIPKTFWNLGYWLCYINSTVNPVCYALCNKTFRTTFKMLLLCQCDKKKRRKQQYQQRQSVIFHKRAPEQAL
- test-name: Radioligand binding assay, muscarinic M3 receptors
- setup-conditions: test compound 1×10^−6 M
measurement-name: inhibition at 1 µM (%)

molecule | numeric-result
O=S(=O)(NC1CCN(CCCc2noc3cc(F)ccc23)C1)c1cc2ccccc2o1 (centres unmarked) | 28
O=S(=O)(NCC1CCN(CCCc2noc3cc(F)ccc23)C1)c1ccc2cc(Cl)ccc2c1 (centres unmarked) | 16
O=S(=O)(NC1CN(CCOc2cccc3[nH]ccc23)C1)c1cccc2ccccc12 | 11
O=S(=O)(NC1CCN(CCOc2cccc3ccccc23)C1)c1ccc2ccccc2c1 (centres unmarked) | 9
O=S(=O)(N[C@H]1CCN(CCCc2noc3cc(F)ccc23)C1)c1ccc2cc(Cl)ccc2c1 | 9
O=S(=O)(N[C@@H]1CCN(CCCc2noc3cc(F)ccc23)C1)c1csc2ccccc12 | 25
O=S(=O)(N[C@H]1CCN(CCCc2noc3cc(F)ccc23)C1)c1ccc2ccccc2c1 | 12
O=S(=O)(NCC1CN(CCOc2cccc3c2OCCO3)C1)c1cc2ccccc2o1 | -9
O=S(=O)(NC1CCN(CCCc2c[nH]c3ccc(F)cc23)C1)c1cccc2ccccc12 (centres unmarked) | -3
O=S(=O)(NCC1CCN(CCOc2cccc3c2OCCO3)C1)c1ccc2c(c1)CCO2 (centres unmarked) | 12
O=S(=O)(NC1CN(CCOc2cccc3[nH]ccc23)C1)c1cccc(Cl)c1 | -8
O=S(=O)(NCC1CCN(CCOc2cccc3ccccc23)C1)c1ccc2ccccc2c1 (centres unmarked) | 49
Cc1c(S(=O)(=O)NC2CCN(CCCc3noc4cc(F)ccc34)C2)sc2ccc(Cl)cc12 (centres unmarked) | 30
Cc1ccc2sc(S(=O)(=O)N[C@H]3CCN(CCCc4noc5cc(F)ccc45)C3)cc2c1 | 15
O=S(=O)(N[C@@H]1CCN(CCCc2noc3cc(F)ccc23)C1)c1cc2ccccc2s1 | 11
O=S(=O)(NCC1CCN(CCOc2cccc3c2OCCO3)C1)c1ccc(F)c(Cl)c1 (centres unmarked) | 8
O=S(=O)(NCC1CCN(CCOc2cccc3c2OCCO3)C1)c1cccc(O)c1 (centres unmarked) | 9
O=S(=O)(NC1CCN(CCCc2c[nH]c3ccc(F)cc23)C1)c1ccc2ccccc2c1 (centres unmarked) | 2
Cc1c(S(=O)(=O)NCC2CN(CCCc3noc4cc(F)ccc34)C2)sc2ccc(Cl)cc12 | 17
O=S(=O)(NC1CCN(CCCc2c[nH]c3ccc(F)cc23)C1)c1ccc(F)cc1 (centres unmarked) | 17
O=S(=O)(NCC1CN(CCCc2noc3cc(F)ccc23)C1)c1cc2ccccc2s1 | 1
Cc1cccc(S(=O)(=O)NC2CCN(CCCc3c[nH]c4ccc(F)cc34)C2)c1 (centres unmarked) | 5
Cn1ccc2cc(S(=O)(=O)NCC3CCN(CCOc4cccc5c4OCCO5)C3)ccc21 (centres unmarked) | 13

* * *

- experimental-target: 5-HT7 serotoninergic receptors (Homo sapiens, UniProt P34969)
- Sequence (P34969 whole entry): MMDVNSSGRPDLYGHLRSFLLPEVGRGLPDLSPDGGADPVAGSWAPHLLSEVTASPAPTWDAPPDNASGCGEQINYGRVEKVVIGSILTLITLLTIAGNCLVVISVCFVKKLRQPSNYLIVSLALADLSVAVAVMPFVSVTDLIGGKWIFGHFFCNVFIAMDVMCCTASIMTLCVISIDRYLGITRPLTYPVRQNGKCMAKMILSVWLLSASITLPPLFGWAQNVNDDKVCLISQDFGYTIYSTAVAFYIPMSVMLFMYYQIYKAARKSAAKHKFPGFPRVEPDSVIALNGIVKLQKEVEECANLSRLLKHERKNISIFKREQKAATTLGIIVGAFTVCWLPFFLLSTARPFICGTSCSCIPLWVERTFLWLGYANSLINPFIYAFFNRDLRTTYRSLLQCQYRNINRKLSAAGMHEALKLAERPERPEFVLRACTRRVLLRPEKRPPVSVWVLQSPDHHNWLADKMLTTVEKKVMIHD
- test-name: Cellular functional assay, 5-HT7 serotoninergic receptors
- Assay type: cell-based
- setup-conditions: agonist mode; percent of control specific agonist response

compound | 5-HT7 ag [%], %
Cc1cc(S(=O)(=O)N[C@@H]2CCN(CCCc3noc4cc(F)ccc34)C2)c(C)s1 | −1
O=S(=O)(NC1CN(CCOc2cccc3c2OCCO3)C1)c1ccc(Cl)cc1 | 18
COc1ccc2cc(S(=O)(=O)NC3CCN(CCCc4noc5cc(F)ccc45)C3)ccc2c1 (centres unmarked) | −2
O=S(=O)(N[C@@H]1CCN(CCCc2noc3cc(F)ccc23)C1)c1cc2ccccc2o1 | −1
O=S(=O)(NCC1CN(CCCc2noc3cc(F)ccc23)C1)c1ccc2ccccc2c1 | 1
O=S(=O)(NCC1CCN(CCOc2cccc3ccccc23)C1)c1ccc2ccccc2c1 (centres unmarked) | 10
Cc1cc(S(=O)(=O)NC2CCN(CCCc3noc4cc(F)ccc34)C2)c(C)s1 (centres unmarked) | 2
O=S(=O)(N[C@@H]1CCN(CCCc2noc3cc(F)ccc23)C1)c1cc2ccc(Cl)cc2s1 | 1

* * *

- experimental-target: D2 dopaminergic receptors (Homo sapiens, UniProt P14416)
- Sequence (P14416 whole entry): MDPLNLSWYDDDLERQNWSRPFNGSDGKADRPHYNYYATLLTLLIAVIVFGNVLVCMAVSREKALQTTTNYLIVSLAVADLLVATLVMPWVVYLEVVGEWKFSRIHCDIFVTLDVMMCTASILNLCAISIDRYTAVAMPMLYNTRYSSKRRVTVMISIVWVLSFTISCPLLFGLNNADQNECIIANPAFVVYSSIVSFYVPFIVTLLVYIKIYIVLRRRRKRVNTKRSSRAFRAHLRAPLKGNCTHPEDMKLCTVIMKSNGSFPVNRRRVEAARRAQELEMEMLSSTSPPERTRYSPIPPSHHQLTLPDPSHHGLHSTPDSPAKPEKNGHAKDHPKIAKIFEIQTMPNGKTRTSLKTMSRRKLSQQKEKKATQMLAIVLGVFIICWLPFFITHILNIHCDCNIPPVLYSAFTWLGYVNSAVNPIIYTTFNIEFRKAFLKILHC
- test-name: Cellular functional assay, D2 dopaminergic receptors
- Assay type: cell-based
- setup-conditions: agonism, D2S (h), HEK-293 cells, percent of control specific agonist response (3 μM dopamine for control)

molecule | experimental-target | D2 ag [%]
Cc1cc(S(=O)(=O)NC2CCN(CCCc3noc4cc(F)ccc34)C2)c(C)s1 (stereo not drawn) [Compound 221] | D2 dopaminergic receptors (Homo sapiens, UniProt P14416) | 14%
O=S(=O)(N[C@H]1CCN(CCCc2noc3cc(F)ccc23)C1)c1cc2ccccc2o1 [Compound 215] | D2 dopaminergic receptors (Homo sapiens, UniProt P14416) | 6%
O=S(=O)(N[C@@H]1CCN(CCCc2noc3cc(F)ccc23)C1)c1csc2ccccc12 [Compound 224] | D2 dopaminergic receptors (Homo sapiens, UniProt P14416) | 5%
Cc1c(S(=O)(=O)NC2CCN(CCCc3noc4cc(F)ccc34)C2)sc2ccc(F)cc12 (stereo not drawn) [Compound 28] | D2 dopaminergic receptors (Homo sapiens, UniProt P14416) | 1%
O=S(=O)(NCC1CN(CCCc2noc3cc(F)ccc23)C1)c1ccc2ccccc2c1 [Compound 134] | D2 dopaminergic receptors (Homo sapiens, UniProt P14416) | 6%
Cc1c(S(=O)(=O)NCC2CN(CCCc3noc4cc(F)ccc34)C2)sc2ccc(F)cc12 [Compound 130] | D2 dopaminergic receptors (Homo sapiens, UniProt P14416) | 6%
Cc1c(S(=O)(=O)N[C@@H]2CCN(CCCc3noc4cc(F)ccc34)C2)sc2ccc(F)cc12 [Compound 202] | D2 dopaminergic receptors (Homo sapiens, UniProt P14416) | 0%
Cc1cc(S(=O)(=O)N[C@@H]2CCN(CCCc3noc4cc(F)ccc34)C2)c(C)s1 [Compound 222] | D2 dopaminergic receptors (Homo sapiens, UniProt P14416) | 6%
Cc1c(S(=O)(=O)N[C@H]2CCN(CCCc3noc4cc(F)ccc34)C2)sc2ccc(F)cc12 [Compound 203] | D2 dopaminergic receptors (Homo sapiens, UniProt P14416) | 0%

* * *

- experimental-target: dopaminergic receptors D2 (Homo sapiens, UniProt P14416)
- Sequence (P14416 whole entry): as the sequence (P14416 whole entry) above
- test-name: Radioligand binding assay, dopaminergic D2 receptors
- setup-conditions: binding assay, test compound 1×10^−6 M
Note to self: use 1 only for D2 [%] readings below 40%; a reading exactly at 40% still gets 0.

compound | class-name
Cc1cccc(S(=O)(=O)NC2CCN(CCCc3noc4cc(F)ccc34)CC2)c1 | 0
O=S(=O)(NCC1CCN(CCOc2ccc3cc[nH]c3c2)CC1)c1cccc2ccccc12 | 1
O=S(=O)(NC1CCN(CCCc2noc3cc(F)ccc23)CC1)c1ccc2ccccc2c1 | 0
O=S(=O)(NC1CCN(CCOc2cccc3c2OCCO3)CC1)c1ccccc1 | 1
Cc1cccc(S(=O)(=O)NC2CCN(CCOc3cccc4c3OCCO4)CC2)c1 | 1
O=S(=O)(NC1CN(CCOc2cccc3c2OCCO3)C1)c1cccc(F)c1 | 1
CC1(C)Cc2cccc(OCCN3CCC(NS(=O)(=O)c4cccc(O)c4)CC3)c2O1 | 0
O=S(=O)(NC1CN(CCOc2cccc3c2OCCO3)C1)c1ccc2ccccc2c1 | 1
O=S(=O)(NCC1CCN(CCCc2noc3cc(F)ccc23)CC1)c1cccc2ccccc12 | 0
O=S(=O)(NC1CCN(CCOc2cccc3ccccc23)CC1)c1ccc2ccccc2c1 | 1
O=S(=O)(NC1CCN(CCOc2cccc3c2OCCO3)C1)c1ccc2ccccc2c1 (stereo not drawn) | 1
O=S(=O)(NC1CN(CCOc2cccc3c2OCCO3)C1)c1ccc(F)cc1 | 1
O=S(=O)(NCC1CN(CCCc2noc3cc(F)ccc23)C1)c1cc2ccccc2s1 | 0
O=S(=O)(NC1CN(CCOc2cccc3c2OCCO3)C1)c1ccc(Cl)cc1 | 0
O=S(=O)(NC1CCN(CCOc2cccc3ccccc23)CC1)c1cccc(O)c1 | 0
O=S(=O)(NC1CN(CCOc2cccc3c2OCCO3)C1)c1cccc2ccccc12 | 0
O=S(=O)(NC1CN(CCOc2cccc3c2OCCO3)C1)c1cccc(Cl)c1 | 1

* * *

- experimental-target: receptors D4.4 (Homo sapiens, UniProt P21917)
- Sequence (P21917 whole entry): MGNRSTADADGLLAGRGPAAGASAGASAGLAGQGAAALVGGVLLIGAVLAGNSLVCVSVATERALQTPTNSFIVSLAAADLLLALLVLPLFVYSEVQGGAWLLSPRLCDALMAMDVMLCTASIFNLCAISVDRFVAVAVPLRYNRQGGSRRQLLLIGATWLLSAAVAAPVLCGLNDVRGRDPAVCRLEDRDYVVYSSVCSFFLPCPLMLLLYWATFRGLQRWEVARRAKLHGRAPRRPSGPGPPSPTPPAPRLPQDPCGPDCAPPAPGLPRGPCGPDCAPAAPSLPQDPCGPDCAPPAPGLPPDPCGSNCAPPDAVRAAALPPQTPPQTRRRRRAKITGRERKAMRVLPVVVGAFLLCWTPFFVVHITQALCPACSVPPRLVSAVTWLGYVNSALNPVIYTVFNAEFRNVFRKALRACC
- test-name: Radioligand binding assay, dopaminergic D4 (D4.4) receptors
- setup-conditions: test compound 1×10^−6 M
Quick reference: inhibition at 1 µM of the listed items.
measurement-name: inhibition at 1 µM

molecule | measurement-name | result
O=S(=O)(NC1CCN(CCCc2noc3cc(F)ccc23)C1)c1ccc(Cl)c(F)c1 (centres unmarked) | inhibition at 1 µM | 92%
O=S(=O)(NC1CN(CCOc2cccc3[nH]ccc23)C1)c1ccc(F)cc1 | inhibition at 1 µM | 72%
CC(C)(C)c1ccc(S(=O)(=O)NCC2CN(CCOc3cccc4c3OCCO4)C2)cc1 | inhibition at 1 µM | 64%
O=S(=O)(NC1CCN(CCCc2noc3cc(F)ccc23)C1)c1cc2ccc(F)cc2s1 (centres unmarked) | inhibition at 1 µM | 70%
Cc1ccc2sc(S(=O)(=O)N[C@@H]3CCN(CCCc4noc5cc(F)ccc45)C3)cc2c1 | inhibition at 1 µM | 68%
O=S(=O)(NC1CCN(CCCc2c[nH]c3ccc(Cl)cc23)C1)c1cccc(Cl)c1 (centres unmarked) | inhibition at 1 µM | 94%
O=S(=O)(NCC1CCN(CCOc2cccc3c2OCCO3)C1)c1cccc(O)c1 (centres unmarked) | inhibition at 1 µM | 39%
CC1(C)Cc2cccc(OCCN3CCC(NS(=O)(=O)c4cccc(O)c4)C3)c2O1 (centres unmarked) | inhibition at 1 µM | 83%
Cc1cc(S(=O)(=O)N[C@H]2CCN(CCCc3noc4cc(F)ccc34)C2)c(C)s1 | inhibition at 1 µM | 92%
O=S(=O)(N[C@H]1CCN(CCCc2noc3cc(F)ccc23)C1)c1cc2ccccc2o1 | inhibition at 1 µM | 88%
O=S(=O)(NCC1CN(CCOc2cccc3ccccc23)C1)c1ccc2ccccc2c1 | inhibition at 1 µM | 63%
O=S(=O)(NC1CCN(CCCc2noc3cc(F)ccc23)C1)c1csc2ccccc12 (centres unmarked) | inhibition at 1 µM | 101%
O=S(=O)(NC1CN(CCOc2cccc3[nH]ccc23)C1)c1cccc2ccccc12 | inhibition at 1 µM | 82%
O=S(=O)(NC1CCN(CCCc2c[nH]c3ccc(F)cc23)C1)c1ccc(F)cc1 (centres unmarked) | inhibition at 1 µM | 76%
O=S(=O)(NC1CN(CCOc2cccc3[nH]ccc23)C1)c1ccc2ccccc2c1 | inhibition at 1 µM | 94%
O=S(=O)(NC1CCN(CCCc2noc3cc(F)ccc23)C1)c1cc2ccccc2s1 (centres unmarked) | inhibition at 1 µM | 84%
O=S(=O)(NCC1CN(CCCc2noc3cc(F)ccc23)C1)c1cc2ccccc2s1 | inhibition at 1 µM | 55%
O=S(=O)(NC1CCN(CCCc2c[nH]c3ccc(Cl)cc23)C1)c1cccc(F)c1 (centres unmarked) | inhibition at 1 µM | 94%
O=S(=O)(N[C@H]1CCN(CCCc2noc3cc(F)ccc23)C1)c1cc2ccccc2s1 | inhibition at 1 µM | 81%
O=S(=O)(NC1CCN(CCCc2noc3cc(F)ccc23)C1)c1cc2ccccc2o1 (centres unmarked) | inhibition at 1 µM | 87%
COc1ccc2cc(S(=O)(=O)N[C@@H]3CCN(CCCc4noc5cc(F)ccc45)C3)ccc2c1 | inhibition at 1 µM | 88%
O=S(=O)(NCC1CN(CCCc2noc3cc(F)ccc23)C1)c1ccc2scnc2c1 | inhibition at 1 µM | 39%
O=S(=O)(NC1CCN(CCCc2c[nH]c3ccc(F)cc23)C1)c1ccc(Cl)cc1 (centres unmarked) | inhibition at 1 µM | 78%
COc1ccc2cc(S(=O)(=O)N[C@H]3CCN(CCCc4noc5cc(F)ccc45)C3)ccc2c1 | inhibition at 1 µM | 89%
Cc1cccc(S(=O)(=O)NC2CCN(CCCc3c[nH]c4ccc(Cl)cc34)C2)c1 (centres unmarked) | inhibition at 1 µM | 88%
O=S(=O)(NC1CCN(CCCc2noc3cc(F)ccc23)C1)c1cccc2ccccc12 (centres unmarked) | inhibition at 1 µM | 100%
